Every entry's value here was drawn from patent US20260193254A1.

test_description: Approximate solubility of solid state Form V at 25° C. and 50° C. (visual observation)
Assay type: physicochemical
condition_details: organic solvent or mixture, thermodynamic from solid, SL5 Ethyl acetate, 25° C.
Protocol: Maximum volume of each solvent added was 1 mL. Approximate solubility was determined by visual observation.
observed_property: solubility at 10 min

// recorded solubility at 10 min for Nc1nc(=O)n(-c2ccccc2Cl)c2nc(C(F)(F)F)ccc12 [solid state Form V] : < 5000 µg/mL

* * *

test_description: Bulk stability of crystalline forms
Format: physicochemical
condition_details: Solid state, 60° C., tight container, 2 weeks
observed_property: Purity, Bulk (HPLC) (%)
// units = %; emit number, no label

These solved cases illustrate the format of a correct answer.
Nc1nc(=O)n(-c2ccccc2Cl)c2nc(C(F)(F)F)ccc12 [Form A]: 99.2
Nc1nc(=O)n(-c2ccccc2Cl)c2nc(C(F)(F)F)ccc12 [Form D]: 97.8
Nc1nc(=O)n(-c2ccccc2Cl)c2nc(C(F)(F)F)ccc12 [substantially amorphous form]: 97.8
Nc1nc(=O)n(-c2ccccc2Cl)c2nc(C(F)(F)F)ccc12 [Form T]: 99.0

Moving on to another compound below.
// recorded Purity, Bulk (HPLC) for Nc1nc(=O)n(-c2ccccc2Cl)c2nc(C(F)(F)F)ccc12 [solid state Form V] : 98.9
